# system_under_test: CRBN_C287 (Homo sapiens)
# Construct: endogenous in cells
# Sequence (Q96SW2 whole entry): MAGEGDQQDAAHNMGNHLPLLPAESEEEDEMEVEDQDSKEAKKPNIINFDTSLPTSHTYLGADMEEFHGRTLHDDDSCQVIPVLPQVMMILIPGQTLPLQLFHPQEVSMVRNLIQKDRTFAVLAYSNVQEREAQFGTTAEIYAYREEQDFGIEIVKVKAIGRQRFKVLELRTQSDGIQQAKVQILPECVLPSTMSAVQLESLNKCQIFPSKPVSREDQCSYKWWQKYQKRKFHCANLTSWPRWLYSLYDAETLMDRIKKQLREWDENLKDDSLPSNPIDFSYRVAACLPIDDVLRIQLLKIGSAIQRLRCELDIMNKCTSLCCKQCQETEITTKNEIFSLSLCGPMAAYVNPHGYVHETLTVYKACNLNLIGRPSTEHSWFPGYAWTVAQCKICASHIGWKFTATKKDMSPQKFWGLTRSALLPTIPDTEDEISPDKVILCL
# assay_info: CRBN C287 inhibition, probe labeling in lysate (Example 42)
# condition_set: TE50, CRBN_C287, lysate 1 h
Catalogue of pIC50 values
// pIC50 is dimensionless: -log10 of concentration (M)

Solved cases below.
1. C=CC(=O)N1CCC(Oc2cc(-c3ccccc3OC)cc(C#N)n2)CC1 [Example 28]	4.10
2. C=CC(=O)N1CCC(Oc2cc(-c3ccccc3OC)cnn2)CC1 [Example 27]	5.12
3. C=CC(=O)N1CC[C@@H](Oc2cc(C#N)cc(-c3ccccc3OC)c2)[C@H](F)C1 [Example 30]	6.40
4. C=CC(=O)N1CC(Oc2cc(C#N)cc(-c3ccccc3OC)c2)C1 [Example 36]	6.92
5. C=CC(=O)N1[C@@H]2CC[C@H]1C[C@H](Oc1cc(C(N)=O)cc(-c3ccccc3OC)c1)C2 [Example 39]	4.28
6. C=CC(=O)N1CCC(Oc2cc(C#N)cc(-c3ccccc3OC)c2)C(C)C1 (single isomer, unassigned) [Example 33]	5.33
7. COc1ccccc1-c1cc(C#N)cc(OC2CCN(C(=O)/C(C#N)=C/C(C)C)CC2)c1 [Example 16]	6.92

# context switch: different compound, same pIC50
Recorded pIC50 for C=CC(=O)N1CC[C@H](Oc2cc(C#N)cc(-c3ccccc3OC)c2)[C@H](F)C1 [Example 31] , please?
6.54

---

Each record here notes measured inhibition of probe labeling, BTK_481, Nat..
# system_under_test: BTK_481 (Homo sapiens, UniProt Q06187)
# Construct: In each the cell lysate was pretreated with compound; endogenous in cells
# Sequence (Q06187 whole entry): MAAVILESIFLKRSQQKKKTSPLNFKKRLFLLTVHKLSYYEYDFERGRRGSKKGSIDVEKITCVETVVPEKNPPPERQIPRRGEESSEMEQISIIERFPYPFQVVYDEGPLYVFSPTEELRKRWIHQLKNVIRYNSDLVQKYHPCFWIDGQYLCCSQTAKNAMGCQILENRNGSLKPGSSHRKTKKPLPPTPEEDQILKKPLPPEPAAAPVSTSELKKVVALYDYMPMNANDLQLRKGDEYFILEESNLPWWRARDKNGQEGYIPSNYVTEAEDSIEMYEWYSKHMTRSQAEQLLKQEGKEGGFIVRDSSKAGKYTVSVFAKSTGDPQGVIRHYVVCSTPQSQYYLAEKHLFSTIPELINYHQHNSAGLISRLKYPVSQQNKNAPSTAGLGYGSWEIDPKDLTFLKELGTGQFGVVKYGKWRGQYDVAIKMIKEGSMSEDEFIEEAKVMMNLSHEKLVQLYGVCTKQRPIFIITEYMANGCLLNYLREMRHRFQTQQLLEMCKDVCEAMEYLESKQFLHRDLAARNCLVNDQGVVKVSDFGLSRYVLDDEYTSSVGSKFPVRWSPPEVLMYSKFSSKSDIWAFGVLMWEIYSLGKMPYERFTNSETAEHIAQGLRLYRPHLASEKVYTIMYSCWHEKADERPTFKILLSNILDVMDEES
# assay_info: Probe labeling at native and denatured states after pretreatment (Table 2)
# Type: binding
# condition_set: native state, screening concentration
Note: unit % is implicit; provide only the numeric part.

Use these answered entries as a reference point.
1) C=CC(=O)N1CCC(Oc2cccc(-c3ccccc3OC)c2)CC1 [drawing 206]	2
2) C=CC(=O)N1CC(Cc2ccc(C)cc2)C1	99
3) C=CC(=O)N1CCC(Oc2cc(C#N)cc(-c3ccccc3OC)c2)CC1 [drawing 205]	52

Would you kindly share the measured inhibition of probe labeling, BTK_481, Nat. for C=CC(=O)N(c1ccccc1)c1ccc(Br)cc1 [reference compound] ?
97

---

# Tested on: PRTN_K
# assay_info: Inhibition of probe labeling at screening concentration (Table 1)
# Format: binding
# condition_set: 500 μM
measurement_label: Percentage inhibition of probe labeling, PRTN_K
The reply should consist of the numeric value with the unit placed after it.

# annotated cases, reported Percentage inhibition of probe labeling, PRTN_K shown
1) C=CC(=O)N1CCC(Cc2cccc(-c3ccccc3NC(C)=O)c2)CC1	20%
2) C=CC(=O)N1CCC(Oc2cc(C)cc(-c3ccccc3)c2)CC1	17%
3) CCc1ccccc1-c1cccc(NC2CCN(C(=O)/C=C/CC(C)C)CC2)c1	22%
4) C=CC(=O)N1CCC(Oc2cc(C)cc(-c3ccccc3OC)c2)CC1	13%

Need Percentage inhibition of probe labeling, PRTN_K, item C=CC(=O)N1CCC(Nc2cc(C(N)=O)cc(-c3ccccc3CC)c2)CC1
12%

---

# system_under_test: CRBN-318 (Homo sapiens, UniProt Q96SW2)
# assay_info: Inhibition of probe labeling at screening concentration (Table 1)
# Format: binding
# Design: endogenous in cells; host or cells: cell lysate
# condition_set: native folded protein, read-out: Percentage inhibition of probe labeling, CRBN_318
Quick rule for you: inhibition at 500 µM at 80% or higher means TRUE, lower means FALSE.

Record excerpt, results attached:
1) C=CC(=O)N1CCC(Cc2cccc(-c3ccccc3NC(C)=O)c2)CC1	FALSE
2) C=CC(=O)N1CCC(Oc2cc(C)cc(-c3ccccc3OC)c2)CC1	TRUE

Evaluate C=CC(=O)N1CCC(Nc2cc(C(N)=O)cc(-c3ccccc3CC)c2)CC1 : inhibition at 500 µM at minimum 80%?
TRUE

# iterate: C=CC(=O)N1CCC(Oc2cc(C)cc(-c3ccccc3)c2)CC1
FALSE

Similarly, CCc1ccccc1-c1cccc(NC2CCN(C(=O)/C=C/CC(C)C)CC2)c1 ?
TRUE

---

# System: PRTN_H
# assay_info: Inhibition of probe labeling at screening concentration (Table 1)
# Type: binding
# condition_set: 500 μM
measurement_label: Percentage inhibition of probe labeling, PRTN_H (%)
Answer in %, number only, no unit symbol.

Examples from the recorded data:
1) C=CC(=O)N1CCC(Oc2cc(C)cc(-c3ccccc3OC)c2)CC1	9
2) C=CC(=O)N1CCC(Oc2cc(C)cc(-c3ccccc3)c2)CC1	−5
3) C=CC(=O)N1CCC(Nc2cc(C(N)=O)cc(-c3ccccc3CC)c2)CC1	6
4) CCc1ccccc1-c1cccc(NC2CCN(C(=O)/C=C/CC(C)C)CC2)c1	4

# input for lookup
Kindly state the measured Percentage inhibition of probe labeling, PRTN_H obtained for C=CC(=O)N1CCC(Cc2cccc(-c3ccccc3NC(C)=O)c2)CC1 with PRTN_H.
2

---

Percentage inhibition of probe labeling, PRTN_G: recorded values
# Test system: PRTN_G
# assay_info: Inhibition of probe labeling at screening concentration (Table 1)
# Format: binding
# condition_set: 500 μM
# Procedure: Cells were resuspended in cold PBS on ice and sonicated with a probe sonicator to achieve lysis. 200 μL of lysate containing 5 mg/ml proteome was treated with 2 μL of 100× compound stock in a 2-mL deep-well plate. The treated lysate was subsequently incubate at 25° C. for 1 hr with shaking at 600 rpm. The treated lysate was further incubated with 2 μL of 10 mM desthiobiotin iodoacetamide probe at 25° C. for 1 hr with shaking at 600 rpm. […]
Answer with a number only, understood to be in %.

// below: answered compounds
1. C=CC(=O)N1CCC(Cc2cccc(-c3ccccc3NC(C)=O)c2)CC1	12
2. C=CC(=O)N1CCC(Oc2cc(C)cc(-c3ccccc3OC)c2)CC1	13

What does the data say about its Percentage inhibition of probe labeling, PRTN_G? Entry: CCc1ccccc1-c1cccc(NC2CCN(C(=O)/C=C/CC(C)C)CC2)c1
13

Same lookup for C=CC(=O)N1CCC(Oc2cc(C)cc(-c3ccccc3)c2)CC1 , please.
−8

Can you check C=CC(=O)N1CCC(Nc2cc(C(N)=O)cc(-c3ccccc3CC)c2)CC1 next?
6

---

// reported inhibition at 500 µM for each item listed
# system_under_test: CRBN Cys287 (Homo sapiens, UniProt Q96SW2)
# Construct: endogenous in cells
# assay_info: Inhibition of iodoacetamide probe labeling of CRBN cysteines, cell lysate (Table 3A)
# Format: binding
# condition_set: 500 micromolar, cell lysate, 1 h; read-out: % inhibition of iodoacetamide probe labeling, Cys287
The answer is to be given in %; state only the numeric part.

Request the reported inhibition at 500 µM associated with COc1ccccc1-c1cc(OC2CCN(C(=O)/C(C#N)=C/C(C)C)CC2)cc(C(N)=O)c1 [Example A5]
99

---

Reported inhibition at 500 µM by item:
# system_under_test: CRBN_C287 (Homo sapiens)
# Construct: endogenous in cells; host or cells: cell lysate
# assay_info: CRBN C287 inhibition, probe labeling in lysate (Example 42)
# Type: binding
# condition_set: 500 uM, lysate, 1 h; read-out: % inh @ 500 uM (CRBN_C287, lysate 1 h)
The figure you give is taken to be in %; do not add the unit.

# annotated cases, reported inhibition at 500 µM shown
1. C=CC(=O)N1CCC(Oc2cc(C(=O)NC)cc(-c3ccccc3OC)c2)CC1	77.4
2. C=CC(=O)N1C2CCC1CC(Oc1cc(C#N)cc(-c3ccccc3OC)c1)C2 (centres unmarked)	78
3. C=CC(=O)N1CCC(Oc2cccc(-c3ccccc3)c2C#N)CC1	68.2

What measured inhibition at 500 µM goes with COc1ccccc1-c1cccc(OC2CCN(C(=O)/C=C/CN(C)C)CC2)c1 ?
92.9

Do the same for C=CC(=O)N1CCC(Oc2cc(C(N)=O)cc(-c3ccccc3OC)c2)CC1 please
95.2

---

# system_under_test: CRBN Cys287 (Homo sapiens, UniProt Q96SW2)
# Construct: endogenous in cells
# assay_info: Inhibition of iodoacetamide probe labeling of CRBN cysteines, cell lysate (Table 3A)
# Format: binding
# condition_set: 7.8 micromolar, cell lysate, 1 h
measurement_label: inhibition at 7.8 µM (%)
Could you give me the number in %? Just the number is fine.

1. COc1ccccc1-c1cc(OC2CCN(C(=O)/C(C#N)=C/C(C)C)CC2)cc(C(N)=O)c1 [Example A5]	96

Returns the measured inhibition at 7.8 µM for the input molecule. Input: COc1ccccc1-c1cc(C#N)cc(OC2CCN(C(=O)/C(C#N)=C/C(C)(C)C)CC2)c1 [Example A4]
96

Let us now turn to C=CC(=O)N1CC(Oc2ccc(Cl)cc2)C1 [Example A3]
12

Okay, and CC(/C=C(\C#N)C(=O)N1CCC(c2ccccc2)C1)c1ccccc1 (stereo not shown) [Example A7] ?
72
